Record form. Attribute: binding activity, ERα and estradiol. Fill in for each entry.
test_target: ERα (Homo sapiens, UniProt P03372)
Sequence (P03372 1-595): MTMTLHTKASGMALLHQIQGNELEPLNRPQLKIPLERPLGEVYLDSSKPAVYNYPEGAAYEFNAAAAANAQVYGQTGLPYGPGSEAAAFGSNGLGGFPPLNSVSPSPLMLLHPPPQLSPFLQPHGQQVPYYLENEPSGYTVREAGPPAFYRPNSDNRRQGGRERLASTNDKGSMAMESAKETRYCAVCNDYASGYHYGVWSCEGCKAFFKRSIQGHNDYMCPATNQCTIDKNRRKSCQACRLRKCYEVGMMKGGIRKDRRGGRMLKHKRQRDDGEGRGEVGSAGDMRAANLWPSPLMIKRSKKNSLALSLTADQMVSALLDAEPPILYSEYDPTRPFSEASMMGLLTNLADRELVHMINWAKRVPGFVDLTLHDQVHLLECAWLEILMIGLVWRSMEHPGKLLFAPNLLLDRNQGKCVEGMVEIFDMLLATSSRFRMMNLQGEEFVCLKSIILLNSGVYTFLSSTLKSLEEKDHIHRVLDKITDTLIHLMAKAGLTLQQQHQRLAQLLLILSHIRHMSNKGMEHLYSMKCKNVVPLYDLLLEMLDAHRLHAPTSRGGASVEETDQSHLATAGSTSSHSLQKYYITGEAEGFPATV
test_details: Phage ELISA / fingerprint on ER immobilized on biotinylated ERE (Examples 2.3-2.5)
Assay type: binding
Parameters: purchased PanVera Corporation, Madison, WI; key: semiquantitative scale of 0 to 7+; 1+: semiquantitative scale of 0 to 7+; 2+: semiquantitative scale of 0 to 7+; 3+: semiquantitative scale of 0 to 7+; 4+: semiquantitative scale of 0 to 7+; 5+: semiquantitative scale of 0 to 7+; 6+: semiquantitative scale of 0 to 7+; semiquantitative scale of 0 to 7+
measurement_conditions: ERα and estradiol (1 µM)

May I ask what binding activity, ERα and estradiol has been recorded for SSLKCLLNSNFCSR [Peptide 18E-β] ?
6+

May I ask what binding activity, ERα and estradiol has been recorded for SSIPPRSWWLSQLSR [Peptide 19b-β] ?
4+

May I ask what binding activity, ERα and estradiol has been recorded for SRLHDLLLRDESPSR [Peptide 3E-β] ?
5+

May I ask what binding activity, ERα and estradiol has been recorded for SSRTLLEHYLLGGSR [Peptide 20E-β] ?
5+

May I ask what binding activity, ERα and estradiol has been recorded for SSGLPPNFERMLKSR [Peptide 6b-β] ?
3+

May I ask what binding activity, ERα and estradiol has been recorded for SSRPSFTIPWWFDDPSRSR [Peptide 33E-β] ?
3+

May I ask what binding activity, ERα and estradiol has been recorded for SSSMMREFFERELSR [Peptide 5b-β] ?
6+

May I ask what binding activity, ERα and estradiol has been recorded for SSSGPWRWGLSIESR [Peptide 17b-β] ?
2+

May I ask what binding activity, ERα and estradiol has been recorded for SRSPILWHLLQDGSR [Peptide 10E-β] ?
6+

May I ask what binding activity, ERα and estradiol has been recorded for SREGWMGPWRLADSR [Peptide 12t-β] ?
1+

May I ask what binding activity, ERα and estradiol has been recorded for SSWDFRVPWWYNNSR [Peptide 31E-β] ?
2+

May I ask what binding activity, ERα and estradiol has been recorded for SSARPWWLQFEGSSR [Peptide 7t-β] ?
2+

May I ask what binding activity, ERα and estradiol has been recorded for SRPGCLRGVWCLADTPPSR [Peptide 20t-β] ?
2+

----------
test_target: ERβ (Homo sapiens)
test_details: Phage ELISA / fingerprint on ER immobilized on biotinylated ERE (Examples 2.3-2.5)
Type: binding
Design: purchased PanVera Corporation, Madison, WI; key: semiquantitative scale of 0 to 7+; 1+: semiquantitative scale of 0 to 7+; 2+: semiquantitative scale of 0 to 7+; 3+: semiquantitative scale of 0 to 7+; 4+: semiquantitative scale of 0 to 7+; 5+: semiquantitative scale of 0 to 7+; 6+: semiquantitative scale of 0 to 7+; semiquantitative scale of 0 to 7+
measurement_conditions: ERβ and tamoxifen (4-OH tamoxifen, 1 µM)
Record form. Attribute: binding activity, ERβ and tamoxifen. Fill in for each entry.

So what binding activity, ERβ and tamoxifen did SSRTLYCHLTSSNPEWCSR [Peptide 27E-β] get with ERβ (Homo sapiens)?
2+

So what binding activity, ERβ and tamoxifen did SSPGSREWFKDMLSR [Peptide 14t-β] get with ERβ (Homo sapiens)?
7+

So what binding activity, ERβ and tamoxifen did SSTSWLHHYLMGTSR [Peptide 8b-β] get with ERβ (Homo sapiens)?
1+

So what binding activity, ERβ and tamoxifen did SSARPWWLQFEGSSR [Peptide 7t-β] get with ERβ (Homo sapiens)?
7+

So what binding activity, ERβ and tamoxifen did SSGLPPNFERMLKSR [Peptide 6b-β] get with ERβ (Homo sapiens)?
2+

So what binding activity, ERβ and tamoxifen did SSYDWQCPSWYCPAPPSSR [Peptide 29E-β] get with ERβ (Homo sapiens)?
5+

----------
Record form. Attribute: binding activity, ERβ and Estradiol. Fill in for each entry.
test_target: ERβ (Homo sapiens, UniProt Q92731)
Sequence (Q92731 whole entry): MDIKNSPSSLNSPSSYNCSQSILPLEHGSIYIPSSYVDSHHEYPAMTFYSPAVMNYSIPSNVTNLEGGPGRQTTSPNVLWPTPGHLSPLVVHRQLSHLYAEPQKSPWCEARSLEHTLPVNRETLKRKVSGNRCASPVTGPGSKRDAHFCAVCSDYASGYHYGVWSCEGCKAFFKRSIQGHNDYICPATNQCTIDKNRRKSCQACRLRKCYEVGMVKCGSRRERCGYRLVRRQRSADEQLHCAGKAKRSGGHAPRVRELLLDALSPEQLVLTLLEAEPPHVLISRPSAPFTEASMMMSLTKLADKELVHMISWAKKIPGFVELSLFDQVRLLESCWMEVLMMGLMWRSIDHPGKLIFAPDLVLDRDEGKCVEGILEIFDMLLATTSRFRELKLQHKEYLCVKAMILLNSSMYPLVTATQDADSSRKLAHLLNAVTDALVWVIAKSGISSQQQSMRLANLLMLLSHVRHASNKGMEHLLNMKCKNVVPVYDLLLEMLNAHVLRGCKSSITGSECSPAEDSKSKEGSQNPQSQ
test_details: Phage ELISA / fingerprint on ER immobilized on biotinylated ERE (Examples 2.3-2.5)
Assay type: binding
Parameters: purchased PanVera Corporation, Madison, WI; key: semiquantitative scale of 0 to 7+; 1+: semiquantitative scale of 0 to 7+; 2+: semiquantitative scale of 0 to 7+; 3+: semiquantitative scale of 0 to 7+; 4+: semiquantitative scale of 0 to 7+; 5+: semiquantitative scale of 0 to 7+; 6+: semiquantitative scale of 0 to 7+; semiquantitative scale of 0 to 7+
measurement_conditions: ERβ and Estradiol (1 µM)

May I ask what binding activity, ERβ and Estradiol has been recorded for SRWWLDDHELLLYSSR [Peptide 26E-β] ?
7+

May I ask what binding activity, ERβ and Estradiol has been recorded for SRLHDLLLRDESPSR [Peptide 3E-β] ?
6+

May I ask what binding activity, ERβ and Estradiol has been recorded for SSTSWLHHYLMGTSR [Peptide 8b-β] ?
7+

May I ask what binding activity, ERβ and Estradiol has been recorded for SREWEDGFGGRWLSR [Peptide 4t-β] ?
7+

May I ask what binding activity, ERβ and Estradiol has been recorded for SSLKCLLQSSPQKQPFCSR [Peptide 19E-β] ?
7+

May I ask what binding activity, ERβ and Estradiol has been recorded for SREGWMGPWRLADSR [Peptide 12t-β] ?
7+

May I ask what binding activity, ERβ and Estradiol has been recorded for SRMFQVCGDEVCLRSR [Peptide 16t-β] ?
5+

May I ask what binding activity, ERβ and Estradiol has been recorded for SSHCHTRLCSLLTSR [Peptide 15E-β] ?
7+

May I ask what binding activity, ERβ and Estradiol has been recorded for SSAGLLEDMLRSRSR [Peptide 21E-β] ?
7+

----------
test_target: ERα (Homo sapiens, UniProt P03372)
Sequence (P03372 1-595): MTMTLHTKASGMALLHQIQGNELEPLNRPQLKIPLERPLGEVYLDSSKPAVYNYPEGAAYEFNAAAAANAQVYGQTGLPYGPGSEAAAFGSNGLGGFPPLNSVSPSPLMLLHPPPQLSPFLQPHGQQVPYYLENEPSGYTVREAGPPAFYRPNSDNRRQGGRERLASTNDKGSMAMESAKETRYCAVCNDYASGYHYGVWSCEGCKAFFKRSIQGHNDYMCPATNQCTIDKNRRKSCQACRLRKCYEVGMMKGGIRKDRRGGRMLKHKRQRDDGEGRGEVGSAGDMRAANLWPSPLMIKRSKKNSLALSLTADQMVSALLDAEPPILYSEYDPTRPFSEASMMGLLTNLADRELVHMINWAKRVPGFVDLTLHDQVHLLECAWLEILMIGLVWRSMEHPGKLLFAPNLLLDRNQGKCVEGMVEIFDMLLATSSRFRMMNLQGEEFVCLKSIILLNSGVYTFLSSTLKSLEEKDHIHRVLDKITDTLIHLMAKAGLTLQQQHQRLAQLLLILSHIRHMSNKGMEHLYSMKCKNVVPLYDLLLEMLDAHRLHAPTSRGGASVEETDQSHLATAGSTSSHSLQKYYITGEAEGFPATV
test_details: Phage ELISA / fingerprint on ER immobilized on biotinylated ERE (Examples 2.3-2.5)
Assay type: binding
Design: purchased PanVera Corporation, Madison, WI; key: semiquantitative scale of 0 to 7+; 1+: semiquantitative scale of 0 to 7+; 2+: semiquantitative scale of 0 to 7+; 3+: semiquantitative scale of 0 to 7+; 4+: semiquantitative scale of 0 to 7+; 5+: semiquantitative scale of 0 to 7+; 6+: semiquantitative scale of 0 to 7+; semiquantitative scale of 0 to 7+
measurement_conditions: ERα and buffer
outcome_measure: binding activity, ERα and buffer

May I ask what binding activity, ERα and buffer has been recorded for SRDWRSGFLYELLSR [Peptide 4E-β] ?
6+

May I ask what binding activity, ERα and buffer has been recorded for SSPGSREWFKDMLSR [Peptide 14t-β] ?
2+

May I ask what binding activity, ERα and buffer has been recorded for SSAGLLEDMLRSRSR [Peptide 21E-β] ?
4+

May I ask what binding activity, ERα and buffer has been recorded for SSYDWQCPSWYCPAPPSSR [Peptide 29E-β] ?
3+

The reported numbers originate from patent EP1073891B1.
